viability, T/C overview
# System: 857933-349-R-J2-PDC complex spheroids, viability
# assay_overview: Anticancer human tumor 857933-349-R-J2-PDC patient-derived colon adenocarcinoma cell line growth inhibition [GQUAD]
# condition_context: second compound 0.316 µM; first compound 0.316 µM; active compounds read low

The examples below pair each entry with its known result.
molecule: CC1COCCN1c1cc(C2(O)CC3CCC(C2)O3)c2cnn(-c3ccn[nH]3)c2n1 (stereo not drawn) + Cc1[nH]c2ccc(F)cc2c1-c1nc2c3cccnc3c3ncccc3c2[nH]1
measured_target: 857933-349-R-J2-PDC complex spheroids, viability
result: 52.7%

molecule: C=CC(=O)N1CCN(c2nc(=O)n(-c3c(C)ccnc3C(C)C)c3nc(-c4c(O)cccc4F)c(F)cc23)C(C)C1 (stereo not drawn) + Cc1cnc(CNC(=O)c2c(=O)c3ccc(N4CCCN(C)CC4)nc3n3c2sc2ccccc23)cn1
measured_target: 857933-349-R-J2-PDC complex spheroids, viability
result: 26.4%

Consider the additional molecule presented here.
Name the recorded viability, T/C of the item CC1COCCN1c1cc(C2(O)CC3CCC(C2)O3)c2cnn(-c3ccn[nH]3)c2n1 (stereo not drawn) + Cc1cnc(CNC(=O)c2c(=O)c3ccc(N4CCCN(C)CC4)nc3n3c2sc2ccccc23)cn1 in your answer. 5.41%

* * *

# Tested on: 857933-349-R-J2-PDC complex spheroids, viability
# assay_overview: Anticancer human tumor 857933-349-R-J2-PDC cell line growth inhibition [GQUAD]; active = viability on the fitted dose curve at most 10% of control; inactive = the rest;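 also: spheroids exposed to compounds for one week before readout; percent viability relative to vehicle DMSO wells taken as 100%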
# condition_context: second compound 1 µM; first compound 1 µM
In this exercise, the only acceptable responses are 1 (yes) (active), 0 (no) (inactive)

compound: Nc1ccn(C2OC(CO)C(O)C2(F)F)c(=O)n1 (stereo not given) + CN(C)c1ccc(Nc2c3ccc(NC(=O)CCN4CCCC4)cc3nc3cc(NC(=O)CCN4CCCC4)ccc23)cc1
class_assignment: 0 (no)

compound: COc1ccc([C@@H](O)c2cc(-c3ncnc4cc(N5CCOCC5)ccc34)c(F)cc2Cl)nn1 + Cc1[nH]c2ccc(F)cc2c1-c1nc2c3cccnc3c3ncccc3c2[nH]1
class_assignment: 0 (no)

compound: CC1COCCN1c1cc(-c2ccnn2C)c2ccnc(-c3ccn[nH]3)c2n1 (stereo not given) + Cc1cnc(CNC(=O)c2c(=O)c3ccc(N4CCCN(C)CC4)nc3n3c2sc2ccccc23)cn1
class_assignment: 1 (yes)

Record request — test call for O=C(NO)c1cnc(N2CCN(S(=O)(=O)c3ccc4ccccc4c3)CC2)nc1 + Cc1[nH]c2ccc(F)cc2c1-c1nc2c3cccnc3c3ncccc3c2[nH]1 0 (no)

Assay outcome for CC1COCCN1c1cc(C2(S(C)(=N)=O)CC2)nc(-c2ccnc3[nH]ccc23)n1 (stereo not given) + CN(C)c1ccc(Nc2c3ccc(NC(=O)CCN4CCCC4)cc3nc3cc(NC(=O)CCN4CCCC4)ccc23)cc1 : what was it? 0 (no)

Write down the call the test reported for this compound. Item: COc1cccc2c1C(=O)c1c(O)c3c(c(O)c1C2=O)CC(O)(C(=O)CO)CC3OC1CC(N)C(O)C(C)O1 (stereo not given) + CN(C)c1ccc(Nc2c3ccc(NC(=O)CCN4CCCC4)cc3nc3cc(NC(=O)CCN4CCCC4)ccc23)cc1 0 (no)

Per the assay record, what outcome was assigned to CC(C)(O)C1CCC(Nc2ccc3ncc(-c4cccc(C(F)(F)F)c4)n3n2)CC1 (stereo not given) + Cc1[nH]c2ccc(F)cc2c1-c1nc2c3cccnc3c3ncccc3c2[nH]1 ? 0 (no)
